Target: T1, huCD98hc ECD Avi-His (human, UniProt P08195 105-529)
T1 construct: biotinylated on the Avi tag where captured on streptavidin; also called Human CD98-AVI-His; Human CD98hc-AVI-His
T1 sequence: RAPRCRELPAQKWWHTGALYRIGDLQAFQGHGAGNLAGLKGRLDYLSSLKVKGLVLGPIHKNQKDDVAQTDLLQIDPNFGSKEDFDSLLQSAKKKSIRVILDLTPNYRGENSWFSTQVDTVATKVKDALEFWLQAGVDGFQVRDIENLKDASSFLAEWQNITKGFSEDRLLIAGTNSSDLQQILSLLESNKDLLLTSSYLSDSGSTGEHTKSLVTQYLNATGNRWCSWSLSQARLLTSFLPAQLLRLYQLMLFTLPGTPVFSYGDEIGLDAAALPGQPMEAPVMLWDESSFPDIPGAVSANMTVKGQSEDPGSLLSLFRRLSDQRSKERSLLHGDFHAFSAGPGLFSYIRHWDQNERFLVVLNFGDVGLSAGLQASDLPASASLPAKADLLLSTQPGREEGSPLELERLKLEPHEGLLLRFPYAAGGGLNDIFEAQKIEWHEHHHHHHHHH
Assay: ELISA, hybridoma supernatant
assayEndpoint: OD450
Form rule: numeric answer, no unit written next to it.

Input: Param item = CD98HC.04.063 (antibody, V domains shown, hybridoma IgG) VH: EVKLEESGGGLVQPGGSMILSCVASGFTFSNSWMNWVRQSPEKGLEWVAEIRLRSNNYATHYAESVKGRFTISRDDSKSTVYLQMNNLRAEDTGIYYCSRGDPGAYWGQGTLVTVSA VL: DIQMTQSSSYLSVSLGNRVTITCKASDHIKNWLAWFQQKPGNAPRLLISGATILETGVPSRFSGSGSGKDYTLSITSLQTEDVATYYCQQYWSTPYTFGGGTKLEIK ; retrieve measured OD450.
Output: 1.66

Input: Param item = CD98HC.04.003 (antibody, V domains shown, hybridoma IgG) VH: QVQLQQSGAELAKPGASLKMSCKASGYTFTDYYIHWVKQRPGQDLEWIGYINPNSAYTDSNQKFKDKATLTADKSSNTAYMQLSSLTSEDSAVYYCARKGHFYAPSFAYWGQGTLVTVSA VL: DIQMTQTTSSLSASLGDRVTISCRASQDISNYLNWYQQKPDGTVKLLIYYTSRLHSGVPSRFSGSGSGADYSLTISNLQQEDIATYFCQQGDTLPYTFGGGTKLEIE ; retrieve measured OD450.
Output: 1.6

Input: Param item = CD98HC.04.010 (antibody, V domains shown, hybridoma IgG) VH: QVQLQQSGAELMKPGASVKISCKATGYTFSTYWIEWVKQRPGHGLEWIGEILPGSGTTTYNEKFKGKATFTADTSSNTAYMQLSSLTSEDSAVYYCARRTVYYRYEGIDYWGQGTTLTVSS VL: QIVLTQSPAIMSASPGEKVTITCSASSSVSYMFWFQQRPGTSPKLWIYTTSNLASGVPARFSGSGSGTSYSLTISRMEAEDAATYYCQQKNNYPFTFGSGTKLEIK ; retrieve measured OD450.
Output: 1.48
